- test protocol: qHTS assay to identify small molecule agonists of the sonic hedgehog signaling (Shh) pathway - cell viability counter screen (AID 1259366); further: nearly all actives have a fitted effect of over 50% in size
- assay conditions: NIH/3T3 Gli1-Luc viability, CellTiter-Fluor, 24 h; series mostly up to 92.4 µM
Inconclusive results are not listed. Active and inactive are the calls of the source. The call rests on the fitted dose curve; in most records, active means well fitted cell-killing curve with a large enough effect in the repeat runs; inconclusive means weak or mixed curves, or effect the other way; inactive means flat fitted curve, though single readings scatter.
Return exactly one item of Y for active, N for inactive

Solved entries (count: 5):
[[record]]
compound = "C=C(C)C(=O)Nc1ccc(Cl)c(Cl)c1"
assigned_label = "N"

[[record]]
compound = "OC[C@H]1O[C@@](CO)(O[C@H]2O[C@H](CO)[C@@H](O)[C@H](O)[C@H]2O)[C@@H](O)[C@@H]1O"
assigned_label = "N"

[[record]]
compound = "O=P(OC(CCl)CCl)(OC(CCl)CCl)OC(CCl)CCl"
assigned_label = "Y"

[[record]]
compound = "Cc1ccc(N(C)C)cc1"
assigned_label = "N"

[[record]]
compound = "OCC(CO)(CBr)CBr"
assigned_label = "N"


IN: Which outcome was assigned to CCCCCCOCCO in this test?
OUT: N

IN: Name the outcome recorded for COc1ccc(Nc2ccccc2)c(C)c1 in the assay.
OUT: N

IN: What outcome does the record of this test show for O=[N+]([O-])c1ccc(/C=C/c2ccc([N+](=O)[O-])cc2S(=O)(=O)O)c(S(=O)(=O)O)c1 ?
OUT: N

IN: Called result for O=S1(=O)CC=CC1
OUT: N

IN: Field: outcome | Entry: C=C(C)C(=O)O[C@H]1C[C@@H]2CC[C@@]1(C)C2(C)C
OUT: N

IN: Call for entry O=C(O)c1cc(C(=O)O)cc(S(=O)(=O)O)c1 :
OUT: N

IN: Which outcome was assigned to Cc1ccc(S(N)(=O)=O)cc1 in this test?
OUT: N
